# ASSAYED_SYSTEM: Autotaxin (Homo sapiens)
# TEST_SUMMARY: Inhibition of C-terminal FLAG tagged human recombinant ATX expressed in insect sf9 cells using FS-3 as substrate measured every 2 mins for 60 mins by FRET assay
ASSAY_METRIC: pIC50
Answers are plain numbers, as −log10 of the molar value.

- O=C(O)c1cccc(N2CCN(C(=O)COc3ccc(C(F)(F)F)cc3)CC2)c1: 5.12
- O=C(COc1cc(Cl)cc(Cl)c1)N1CCN(c2ccc([N+](=O)[O-])cc2)CC1: 5.64
- O=C(O)c1cccc(N2CCN(C(=O)COc3ccc(Cl)cc3)CC2)c1: 5.43
- O=C(COc1ccccc1C(F)(F)F)N1CCN(c2ccccc2[N+](=O)[O-])CC1: 4.94
- O=C(COc1ccc(Cl)cc1Cl)N1CCN(c2ccccc2[N+](=O)[O-])CC1: 5.39
- CC(=O)OC1(C(=O)COC(=O)c2ccco2)CC2CCC3C4C=CC(=O)CC4(C)CCC3C2(C)C1 (stereo not given): 5.24
- COc1ccc2c(c1)C(NCc1cc(OC)c(OC)cc1N)CCO2 (stereo not given): 5.18
- O=C(O)c1cccc(N2CCN(C(=O)COc3cccc(Cl)c3)CC2)c1: 5.59

Provide reported pIC50 for each item, in the same order as listed.
1. O=C(O)c1ccccc1N1CCN(C(=O)COc2ccc(Cl)cc2)CC1
2. O=C(O)c1cccc(N2CCN(C(=O)COc3cc(Cl)cc(Cl)c3)CC2)c1

1. 5.22
2. 5.14

----------
# ASSAYED_SYSTEM: UniProtKB Q13822
# TEST_SUMMARY: Inhibition of C-terminal FLAG tagged human recombinant ATX expressed in insect sf9 cells at 10 uM using pNP-TMP as substrate measured every 2 mins for 60 mins by absorbance
ASSAY_METRIC: inhibition (%)
One number for each entry, in %.

# example entries with known answers
- O=C(O)c1ccccc1N1CCN(C(=O)COc2ccccc2Cl)CC1: 1.7
- COc1ccc2c(c1)C(NCc1cc(OC)c(OC)cc1N)CCO2 (stereo not given): 7.5

Provide reported inhibition for each item, in the same order as listed.
1. O=C(O)c1ccccc1N1CCN(C(=O)COc2cccc(Cl)c2)CC1
2. O=C(O)c1ccccc1N1CCN(C(=O)COc2ccc(Cl)cc2)CC1
3. O=C(COc1ccccc1Cl)N1CCN(c2ccccc2[N+](=O)[O-])CC1
4. O=C(COc1cc(Cl)cc(Cl)c1)N1CCN(c2ccccc2[N+](=O)[O-])CC1

1: -3.3; 2: 32.1; 3: 18.7; 4: 46.8

Provide reported inhibition for each item, in the same order as listed.
1. O=C(O)c1ccccc1N1CCN(C(=O)COc2ccc(C(F)(F)F)cc2)CC1
2. O=C(O)c1ccccc1N1CCN(C(=O)COc2ccc(Cl)cc2Cl)CC1
3. CCCCCCCCCCCCCC(=O)NC(CCC(=O)O)C(=O)O (stereo not given)
4. O=C(COc1ccccc1C(F)(F)F)N1CCN(c2ccc([N+](=O)[O-])cc2)CC1

43.7
-7.9
-6.9
-3.7

----------
Hi there, I'd appreciate the recorded inhibition for every entry that follows.
# ASSAYED_SYSTEM: Autotaxin (Homo sapiens, UniProt Q13822)
# TEST_SUMMARY: Inhibition of C-terminal FLAG tagged human recombinant ATX expressed in insect sf9 cells at 10 uM using pNP-TMP as substrate measured every 2 mins for 60 mins by absorbance
One number for each entry, in %.

# example entries with known answers
* O=C(COc1cc(Cl)cc(Cl)c1)N1CCN(c2ccc([N+](=O)[O-])cc2)CC1 | 20.4
* O=C(COc1cccc(Cl)c1)N1CCN(c2ccc([N+](=O)[O-])cc2)CC1 | 15.6
* O=C(O)c1ccc(N2CCN(C(=O)COc3cc(Cl)cc(Cl)c3)CC2)cc1 | 27.8
* O=C(COc1cccc(F)c1)N1CCN(c2ccccc2[N+](=O)[O-])CC1 | 18.2
* O=C(COc1ccc(Cl)cc1Cl)N1CCN(c2cccc([N+](=O)[O-])c2)CC1 | 7.3

Provide reported inhibition for each item, in the same order as listed.
1. O=C(COc1ccc(C(F)(F)F)cc1)N1CCN(c2ccc([N+](=O)[O-])cc2)CC1
2. O=C(COc1cccc(F)c1)N1CCN(c2cccc([N+](=O)[O-])c2)CC1
3. O=C(O)c1ccc(N2CCN(C(=O)COc3ccc(Cl)cc3)CC2)cc1
4. O=C(COc1ccc(C(F)(F)F)cc1)N1CCN(c2cccc([N+](=O)[O-])c2)CC1
5. O=C(O)c1cccc(N2CCN(C(=O)COc3cc(Cl)cc(Cl)c3)CC2)c1

1: 26.6; 2: 13.3; 3: 19.6; 4: 30.3; 5: 56.2
